- Test system: PC9
- EXPERIMENT DESCRIPTION: NFkB reporter activity score (signed KS statistic vs DMSO) (signed KS statistic (-1 to 1)); higher = stronger activation of the pathway reporter relative to DMSO
- CONDITIONS USED: 0.5 µM; time after treatment 48 h; PC9 signalome
Counter-ions that a name gives are not always drawn.
READOUT NAME: NFkB reporter activity score
Lab note: write the figure by itself, no unit.

Entry COc1cc2ncnc(Nc3ccc(F)c(Cl)c3)c2cc1OCCCN1CCOCC1 [Gefitinib (Iressa)] has what NFkB reporter activity score? 0.184

Entry `Nc1ncnc2c1c(-c1cnc3[nH]ccc3c1)nn2C1CCCC1` has what NFkB reporter activity score? 0.128

Entry CO[C@H]1C[C@@H]2CC[C@@H](C)[C@@](O)(O2)C(=O)C(=O)N2CCCC[C@H]2C(=O)O[C@H]([C@H](C)C[C@@H]2CC[C@@H](O)[C@H](OC)C2)CC(=O)[C@H](C)/C=C(\C)[C@@H](O)[C@@H](OC)C(=O)[C@H](C)C[C@H](C)/C=C/C=C/C=C/1C [Rapamycin (Sirolimus)] has what NFkB reporter activity score? 0.0606

Entry `O=C(Nc1cc(C(F)(F)F)cc(C(F)(F)F)c1)c1cc(Cl)ccc1O` has what NFkB reporter activity score? 0.111

Entry `CCN1CCN(Cc2ccc(-c3cc4c(N[C@H](C)c5ccccc5)ncnc4[nH]3)cc2)CC1` has what NFkB reporter activity score? 0.161

Entry `COc1cc2ncnc(Nc3ccc(F)c(Cl)c3)c2cc1NC(=O)/C=C/CN1CCCCC1` has what NFkB reporter activity score? 0.23

Entry CO[C@H]1C[C@@H]2CC[C@@H](C)[C@@](O)(O2)C(=O)C(=O)N2CCCC[C@H]2C(=O)O[C@H]([C@H](C)C[C@@H]2CC[C@@H](OP(C)(C)=O)[C@H](OC)C2)CC(=O)[C@H](C)/C=C(\C)[C@@H](O)[C@@H](OC)C(=O)[C@H](C)C[C@H](C)/C=C/C=C/C=C/1C [Deforolimus (MK-8669)] has what NFkB reporter activity score? 0.151

Entry `Cc1ccc(C(=O)N(CCCN)[C@@H](c2oc3cc(Cl)ccc3c(=O)c2Cc2ccccc2)C(C)C)cc1` has what NFkB reporter activity score? 0.169

Entry `Cn1c(=O)c(F)c(Nc2ccc(I)cc2F)c2c(=O)n(C[C@@H](O)CO)cnc21` has what NFkB reporter activity score? 0.274

Entry `Cc1c(NC(=O)OC[C@@H]2COCCN2)cn2ncnc(Nc3ccc4c(cnn4Cc4cccc(F)c4)c3)c12` has what NFkB reporter activity score? 0.0753

Entry CN(C)C/C=C/C(=O)Nc1cc2c(Nc3ccc(F)c(Cl)c3)ncnc2cc1O[C@H]1CCOC1 [Afatinib (BIBW2992)] has what NFkB reporter activity score? 0.208

Entry `Cc1ccc([N+](=O)[O-])cc1S(=O)(=O)N(C)/N=C/c1cnc2ccc(Br)cn12` has what NFkB reporter activity score? 0.0772

Entry `C=CC(=O)Nc1cccc(Sc2nc(Nc3ccc(N4CCN(C)CC4)cc3)ncc2Cl)c1` has what NFkB reporter activity score? 0.174

Entry `CC(=O)Nc1cccc(-n2c(=O)n(C3CC3)c(=O)c3c(Nc4ccc(I)cc4F)n(C)c(=O)c(C)c32)c1` has what NFkB reporter activity score? 0.158

Entry `CC(C)CC(=O)Nc1n[nH]c2c1CN(C(=O)C1CCN(C)CC1)C2(C)C` has what NFkB reporter activity score? 0.167

Entry `O=C(NOC[C@H](O)CO)c1ccc(F)c(F)c1Nc1ccc(I)cc1F` has what NFkB reporter activity score? 0.228

Entry `CCN1CCN(Cc2ccc(Nc3ncc(F)c(-c4cc(F)c5nc(C)n(C(C)C)c5c4)n3)nc2)CC1` has what NFkB reporter activity score? 0.239

Entry `COc1ccc(-c2ccc3c(N4CCOC[C@@H]4C)nc(N4CCOC[C@@H]4C)nc3n2)cc1CO` has what NFkB reporter activity score? 0.178

Entry `CCn1c(-c2nonc2N)nc2c(C#CC(C)(C)O)ncc(OC[C@H]3CCCNC3)c21` has what NFkB reporter activity score? 0.0699

Entry CN1CC[C@H](c2c(O)cc(O)c3c(=O)cc(-c4ccccc4Cl)oc23)[C@H](O)C1 [Flavopiridol hydrochloride] has what NFkB reporter activity score? 0.123

Entry `COc1ccc(-c2ccc3c(N4CCOCC4)nc(N4C[C@@H](C)O[C@@H](C)C4)nc3n2)cc1CO` has what NFkB reporter activity score? 0.0599

Entry CC(C)NC[C@@H](C(=O)N1CCN(c2ncnc3c2[C@H](C)C[C@H]3O)CC1)c1ccc(Cl)cc1 [Ipatasertib (GDC-0068)] has what NFkB reporter activity score? 0.0919

Entry `CC(C)n1nc(-c2cc3cc(O)ccc3[nH]2)c2c(N)ncnc21` has what NFkB reporter activity score? 0.195
